Test system: TK-10 renal
Experiment: NCI tumour cell line growth inhibition, 48 h
quantity.kind: GI50

| compound.smiles | quantity.kind | result |
| --- | --- | --- |
| COc1ccc(-c2nc(Nc3cc(C)[nH]n3)c3ccccc3n2)cc1 | GI50 | 0.865 µM |
| CNCCCNCCCCNCCCN1C(=O)c2ccc3c4c(ccc(c24)C1=O)C(=O)N(CCCNCc1ccccc1OC)C3=O | GI50 | 4.08 µM |
| O=C(NN1C(=O)CSC12CCCCC2)c1[nH]c2ccc(Br)cc2c1-c1ccccc1 | GI50 | 17 µM |

Now turn to the next compound.
Q. For the compound `O=C(Nc1ccc(OCc2nnc(-c3ccc(Cl)cc3)o2)c(F)c1)Nc1ccc(Cl)c(C(F)(F)F)c1` , what GI50 is on record?
A. 3.72 µM
